Where do the numbers come from? From paper PMC11851430.

Biological target: kinase protein levels in MCF-7 cells (Homo sapiens, UniProt Q9BTL3)
Construct: endogenous in cells; host or cells: MCF-7
Sequence (Q9BTL3 whole entry): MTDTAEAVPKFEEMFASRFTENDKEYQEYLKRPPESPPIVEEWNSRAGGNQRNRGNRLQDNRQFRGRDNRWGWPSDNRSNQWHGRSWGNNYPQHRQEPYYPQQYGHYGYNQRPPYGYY
Assay: TMT-labeled quantitative proteomics
Assay type: cell-based
Details: protein FAM103A1; MCF7; 1 µM; set5
Please respond with reported log2FC (compound/DMSO) for every item in the list.

For every listed record, write down its log2FC (compound/DMSO).
1. Cc1ncsc1-c1ccc(CNC(=O)[C@@H]2C[C@@H](O)CN2C(=O)[C@@H](NC(=O)CCCCCCN2CCN(c3ccc(Nc4ncc(Cl)c(Nc5ccccc5C(N)=O)n4)cc3)CC2)C(C)(C)C)cc1 [6-d]
2. Cc1ncsc1-c1ccc(CNC(=O)[C@@H]2C[C@@H](O)CN2C(=O)[C@@H](NC(=O)CCOCCOCCN2CCN(c3ccc(Nc4ncc(Cl)c(Nc5ccccc5C(N)=O)n4)cc3)CC2)C(C)(C)C)cc1 [6-a]
3. Cc1ncsc1-c1ccc(CNC(=O)[C@@H]2C[C@@H](O)CN2C(=O)[C@@H](NC(=O)CCCCCCN2CCN(c3cc(Nc4cc(C5CC5)[nH]n4)nc(Nc4ccc(CC#N)cc4)n3)CC2)C(C)(C)C)cc1 [4-c]
4. Cc1ncsc1-c1ccc(CNC(=O)[C@@H]2C[C@@H](O)CN2C(=O)[C@@H](NC(=O)CCOCCOCCOCCOCCOCCOCCN2CCN(c3cc(Nc4cc(C5CC5)[nH]n4)nc(Nc4ccc(CC#N)cc4)n3)CC2)C(C)(C)C)cc1 [4-b]

Response:
[-0.2114, 0.1658, -0.0003068, 0.005351]
